Measured target: TNPO3 C511A (Homo sapiens, UniProt Q9Y5L0, C511A)
Construct: full-length (FL) WT human TNPO3 were generated by synthesizing codon-optimized DNA fragments; His6 (N, cleaved yes); protein A (N, cleaved yes); made in house; host or cells: Escherichia coli BL21-(DE3) Star
Sequence (Q9Y5L0 1-923 C511A): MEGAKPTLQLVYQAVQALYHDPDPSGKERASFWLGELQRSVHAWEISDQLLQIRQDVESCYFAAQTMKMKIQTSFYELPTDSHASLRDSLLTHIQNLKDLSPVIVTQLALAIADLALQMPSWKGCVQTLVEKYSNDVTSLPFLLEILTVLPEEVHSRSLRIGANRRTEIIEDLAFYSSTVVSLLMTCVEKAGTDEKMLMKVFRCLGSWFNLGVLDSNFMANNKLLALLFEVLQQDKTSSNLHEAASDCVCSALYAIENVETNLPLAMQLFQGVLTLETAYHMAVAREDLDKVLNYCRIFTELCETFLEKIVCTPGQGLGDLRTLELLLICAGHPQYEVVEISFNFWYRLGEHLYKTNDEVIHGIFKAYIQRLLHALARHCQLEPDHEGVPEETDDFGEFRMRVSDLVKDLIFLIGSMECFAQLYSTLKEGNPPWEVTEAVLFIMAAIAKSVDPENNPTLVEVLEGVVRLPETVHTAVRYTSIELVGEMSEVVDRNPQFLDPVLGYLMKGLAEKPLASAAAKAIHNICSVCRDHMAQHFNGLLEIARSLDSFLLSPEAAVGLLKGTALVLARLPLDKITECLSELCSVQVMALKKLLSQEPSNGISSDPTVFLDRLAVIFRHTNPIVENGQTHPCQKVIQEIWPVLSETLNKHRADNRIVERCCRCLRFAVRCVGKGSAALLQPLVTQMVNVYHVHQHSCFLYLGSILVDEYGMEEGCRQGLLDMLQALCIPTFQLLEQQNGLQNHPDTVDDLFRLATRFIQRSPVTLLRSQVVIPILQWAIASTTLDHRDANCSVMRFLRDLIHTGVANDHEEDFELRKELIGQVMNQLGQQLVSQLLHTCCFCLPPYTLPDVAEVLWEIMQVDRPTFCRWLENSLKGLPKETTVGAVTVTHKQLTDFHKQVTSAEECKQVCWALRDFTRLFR
Experimental protocol: ITC, ligand titrated into TNPO3 C511A
Format: binding
Measurement setup: 100 µM ligand into 10 µM TNPO3 C511A, 25 °C, 50 mM Tris–HCl, 150 mM NaCl, 2 mM TCEP, 0.04% NaN3, pH 7.5, error = SD of the fit
Measure name: Kd / affinity of binding to TNPO3 C511A (ITC), as given in Table 1

GGSYRDSADSYATHNE [CIRBP (157-172) Y164A, synthetic CIRBP (157-172) peptide with point mutation Y164A]    No binding
GGSYADSYDSYATHNE [CIRBP (157-172) R161A, synthetic CIRBP (157-172) peptide with point mutation R161A]    No binding
